meta.source: patent US20200079833A1

- Target System: T1, glucose-dependent insulinotropic peptide (gastric inhibitory polypeptide) receptor (GIPR), primary cAMP assay … (human, UniProt P48546 22-466)
- T1 sequence (looked up): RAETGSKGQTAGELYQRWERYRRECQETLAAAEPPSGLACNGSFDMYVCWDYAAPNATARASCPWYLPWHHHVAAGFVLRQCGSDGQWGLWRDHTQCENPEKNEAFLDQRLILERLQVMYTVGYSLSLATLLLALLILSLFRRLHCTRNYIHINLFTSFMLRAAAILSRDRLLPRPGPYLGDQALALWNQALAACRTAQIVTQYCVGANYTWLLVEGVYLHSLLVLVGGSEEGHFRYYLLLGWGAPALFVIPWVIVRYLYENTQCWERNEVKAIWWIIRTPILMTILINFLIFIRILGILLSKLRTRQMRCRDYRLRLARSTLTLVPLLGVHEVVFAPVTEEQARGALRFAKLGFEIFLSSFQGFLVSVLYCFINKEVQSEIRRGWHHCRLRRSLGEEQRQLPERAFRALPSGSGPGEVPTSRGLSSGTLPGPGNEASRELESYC
- Procedure Summary: cell-based or functional assay
Starred links: 1 amine or outer side, 2 acyl side, 3 side chain; linkers in the order of their positions; H or OH if unused. Non-standard residues stand in square brackets, D forms with d. Groups on a side chain read outwards from the residue. Primed or numbered codes have the meaning given here. No end group written: not given here. *: point of attachment. γGlu = O=C(O)[C@H](CCC(=O)[*:2])N[*:1]; αMeF = C[C@](N)(Cc1ccccc1)C(=O)O; αMeK = C[C@](N)(CCCCN)C(=O)O; Lauroyl = CCCCCCCCCCCC(=O)*; αMeS = C[C@](N)(CO)C(=O)O; PEG2′ = not defined here; Aib = CC(C)(N)C(=O)O
Assay Readout: cAMP Primary assay EC50, n2 (nM)

{"Binder": "H[Aib]EGS[αMeF]TSDK([PEG2′-PEG2′-γGlu-Lauroyl])SSYLEK([PEG2′-PEG2′-γGlu-Lauroyl])EAA[αMeK]EFIAFK([PEG2′-PEG2′-γGlu-Lauroyl])VEGG-NH2 [SEQ ID NO: 471]", "cAMP Primary assay EC50, n2, nM": 19.6}
{"Binder": "H[Aib]EGS[αMeF]TSDV[αMeS]SYK([PEG2′-PEG2′-γGlu-Lauroyl])EGK([PEG2′-PEG2′-γGlu-Lauroyl])AA[αMeK]EFIK([PEG2′-PEG2′-γGlu-Lauroyl])FVVEGG-NH2 [SEQ ID NO: 452]", "cAMP Primary assay EC50, n2, nM": 19.7}
{"Binder": "H[Aib]EGS[αMeF]TSDK([PEG2′-PEG2′-γGlu-Lauroyl])SSYLEGK([PEG2′-PEG2′-γGlu-Lauroyl])AA[αMeK]EFIK([PEG2′-PEG2′-γGlu-Lauroyl])FVVEGG-NH2 [SEQ ID NO: 440]", "cAMP Primary assay EC50, n2, nM": 19.7}
{"Binder": "H[Aib]EGS[αMeF]TSDVSK([PEG2′-PEG2′-γGlu-Lauroyl])YLEK([PEG2′-PEG2′-γGlu-Lauroyl])EAA[αMeK]EFIK([PEG2′-PEG2′-γGlu-Lauroyl])FVVEGG-NH2 [SEQ ID NO: 443]", "cAMP Primary assay EC50, n2, nM": 19.4}
